CHO-hCD40L-driven DC Activation IL-12 EC50 by entry:
# test_target: T1, human CD40L, membrane-bound on cells (human, UniProt P29965 1-261)
# T1 sequence: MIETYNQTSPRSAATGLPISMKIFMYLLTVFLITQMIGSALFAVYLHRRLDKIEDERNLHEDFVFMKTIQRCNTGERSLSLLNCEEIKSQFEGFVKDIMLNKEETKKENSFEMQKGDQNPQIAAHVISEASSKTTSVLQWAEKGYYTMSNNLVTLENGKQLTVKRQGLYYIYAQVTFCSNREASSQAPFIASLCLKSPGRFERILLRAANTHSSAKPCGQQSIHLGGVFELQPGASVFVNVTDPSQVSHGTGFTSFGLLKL
# measurement_notes: cell-based or functional assay
Field format: number, assumed nM, no unit text.

Record excerpt, results attached:
INSERT INTO measurements (binder, reported) VALUES
  ('2h572-633 Fc (Fc fusion, not shown: a dimerising Fc or GST) EVQLLESGGGLVQPGGSLRLSCAASGFTFNWELMGWARQAPGKGLEWVSGIEGPGDVTYYADSVKGRFTISRDNSKNTLYLQMNSLRAEDTAVYYCVKVGKDAKSDYRGQGTLVTVSS', 0.34),
  ('2h719-202-N297Qshort Fc (Fc fusion, not shown: a dimerising Fc or GST) EVQLLESGGGLVQPGGSLRLSCAASGFTFKKYEMMWVRQAPGKGLEWVSSISSDGSFTYYADSVKGRFTISRDNSKNTLYLQMNSLRAEDTAVYYCAEPFTEFDYWGHGTLVTVSS', 0.66),
  ('2h116-1320-Fc (Fc fusion, not shown: a dimerising Fc or GST) DIQMTQSPSSLSAYVGDRVTITCRASQPIGPDLLWYQQKPGKAPKLLIYQTSILRSGVPSRFSGSGSETDFTLTISNLQPEDFAKYYCQQYWAFPVTFGQGTKVVIKR', 14);

Now examine the next entry.
What the record says about 2h572-6 Fc (Fc fusion, not shown: a dimerising Fc or GST) EVQLLESGGGLVQPGGSLRLSCAASGFTFNWQLMGWVRQAPGKGLEWVSGIEGPGDVTYYADSVKGRFTISRDNSKNTLYLQMNSLRAEDTAVYYCVKVGKESNSDYRGQGTLVTVSS : CHO-hCD40L-driven DC Activation IL-12 EC50 is 0.22
